Task for the reader: assign each of the following compounds its reported inhibition.
measured.target: Glutamyl endopeptidase (Staphylococcus aureus)
Sequence (P0C1U8 whole entry): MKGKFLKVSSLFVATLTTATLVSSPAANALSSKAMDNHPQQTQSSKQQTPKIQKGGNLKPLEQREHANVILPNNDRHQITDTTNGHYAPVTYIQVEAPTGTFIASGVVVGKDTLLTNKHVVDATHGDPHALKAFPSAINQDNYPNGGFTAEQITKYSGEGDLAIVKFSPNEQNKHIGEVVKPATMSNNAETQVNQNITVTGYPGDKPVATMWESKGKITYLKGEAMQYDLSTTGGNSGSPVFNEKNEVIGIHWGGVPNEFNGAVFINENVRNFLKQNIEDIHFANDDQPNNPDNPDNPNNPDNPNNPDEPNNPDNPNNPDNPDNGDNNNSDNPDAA
method: Inhibition of Staphylococcus aureus endoproteinase GluC using Ac-Phe-Leu-Glu-ACC as substrate at 200 uM after 30 mins
Your answer should be a number followed by the unit of measure.

Use the examples below as a reference point.
>>> obs_value("C[C@H](NC(=O)[C@H](CC(=O)O)NC(=O)OC(C)(C)C)C(=O)NC(CCC(=O)O)P(=O)(Oc1ccccc1)Oc1ccccc1 (mixture of isomers)")
"26%"
>>> obs_value("CC(C)C[C@H](NC(=O)[C@H](CC(=O)O)NC(=O)OC(C)(C)C)C(=O)NC(CCC(=O)O)P(=O)(Oc1ccccc1)Oc1ccccc1 (mixture of isomers)")
"41%"
>>> obs_value("CC(C)C[C@H](NC(=O)[C@H](CCC(=O)O)NC(=O)OC(C)(C)C)C(=O)NC(CCC(N)=O)P(=O)(Oc1ccccc1)Oc1ccccc1 (mixture of isomers)")
"0%"

# batch: return inhibition for each of the 2 compounds below
1. CC(C)[C@H](NC(=O)[C@H](CC(=O)O)NC(=O)OC(C)(C)C)C(=O)NC(CCC(=O)O)P(=O)(Oc1ccccc1)Oc1ccccc1 (mixture of isomers)
2. C[C@H](NC(=O)OC(C)(C)C)C(=O)NC(CCC(=O)O)P(=O)(Oc1ccccc1)Oc1ccccc1 (mixture of isomers)

Response:
1: 50%; 2: 39%

----------
Exercise: state measured pKi for each of the compounds provided.
measured.target: Glutamyl endopeptidase (Staphylococcus aureus)
One number for each entry, as −log10 of the molar value.

>>> obs_value("CC(C)C[C@H](NC(=O)OC(C)(C)C)C(=O)NC(CCC(=O)O)P(=O)(Oc1ccccc1)Oc1ccccc1 (mixture of isomers)")
5.11
>>> obs_value("CC(C)C[C@H](NC(=O)[C@H](CCC(=O)O)NC(=O)OC(C)(C)C)C(=O)NC(CCC(=O)O)P(=O)(Oc1ccccc1)Oc1ccccc1 (mixture of isomers)")
5.02
>>> obs_value("CC(C)[C@H](NC(=O)OC(C)(C)C)C(=O)NC(CCC(=O)O)P(=O)(Oc1ccccc1)Oc1ccccc1 (mixture of isomers)")
4.63
>>> obs_value("CC(C)[C@H](NC(=O)[C@H](CCC(=O)O)NC(=O)OC(C)(C)C)C(=O)NC(CCC(=O)O)P(=O)(Oc1ccccc1)Oc1ccccc1 (mixture of isomers)")
5.00
>>> obs_value("CC(=O)NC(CCC(=O)O)P(=O)(Oc1ccccc1)Oc1ccccc1 (racemic)")
4.96

Hi there! I need pKi for each item below, if you can.
1. C[C@H](NC(=O)[C@H](Cc1ccccc1)NC(=O)OC(C)(C)C)C(=O)NC(CCC(=O)O)P(=O)(Oc1ccccc1)Oc1ccccc1 (mixture of isomers)
2. O=C(O)CCC(NC(=O)OCc1ccccc1)P(=O)(Oc1ccccc1)Oc1ccccc1 (racemic)
3. CC(C)C[C@H](NC(=O)[C@H](Cc1ccccc1)NC(=O)OC(C)(C)C)C(=O)NC(CCC(=O)O)P(=O)(Oc1ccccc1)Oc1ccccc1 (mixture of isomers)
4. CC(C)[C@H](NC(=O)[C@H](Cc1ccccc1)NC(=O)OC(C)(C)C)C(=O)NC(CCC(=O)O)P(=O)(Oc1ccccc1)Oc1ccccc1 (mixture of isomers)

Response:
1. 5.03
2. 5.09
3. 5.21
4. 5.09

Request: Suppose we examine the compound C[C@H](NC(=O)[C@H](CCC(=O)O)NC(=O)OC(C)(C)C)C(=O)NC(CCC(=O)O)P(=O)(Oc1ccccc1)Oc1ccccc1 (mixture of isomers) ; what pKi value has been reported?
Response: 4.89
